# Read-out: Apolipoprotein A-V (APOA5) gene, APOA5 (gene 116519)
# protocol.summary: LTEA_HepaRG_APOA5: Life Technologies and Expression Analysis (LTEA) Assay for Apolipoprotein A-V (APOA5) gene using HepaRG (AID 2283474)
# condition.label: mRNA level, 48 h; actives raise or lower the signal
Activity calls are given as the source filed them. The calls were made as follows: active = hit-call score of the fitted dose curve at least 0.9, where 1 is the maximum; inactive = score below 0.9.
Tick one outcome: yes (1) (active), no (0) (inactive)

These solved cases illustrate the format of a correct answer.
smiles.entry	class.name
ClC1=C(Cl)[C@]2(Cl)[C@H]3[C@H]([C@@H]4C=C[C@H]3C4)[C@@]1(Cl)C2(Cl)Cl	no (0)
COP(=S)(OC)SCN1C(=O)c2ccccc2C1=O	no (0)
c1ccc2c(c1)-c1cccc3cccc-2c13	no (0)
Cc1cc(N=Nc2ccccc2C)ccc1N	yes (1)
C1=Cc2cccc3cccc1c23	no (0)

q: Called result for `CN(C)C(=O)Nc1ccc(Cl)cc1`
a: no (0)

q: Next compound: `Cc1cccc(N)c1N`
a: yes (1)

q: Subsequent entry: `c1ccc2c(c1)oc1ccccc12`
a: no (0)

q: Further, for `Cc1ccc([N+](=O)[O-])cc1` ?
a: no (0)

q: Try this compound next: `CS(=O)(=O)NC(=O)c1cc(Oc2ccc(C(F)(F)F)cc2Cl)ccc1[N+](=O)[O-]`
a: no (0)

q: Param item: `Cn1cc(-c2ccccc2)c(=O)c(-c2cccc(C(F)(F)F)c2)c1`
a: no (0)

q: Ok, now `O=C(N[C@H](c1ccccc1)[C@@H]1CN2CCC1CC2)c1c(Cl)ccc(C(F)(F)F)c1Cl`
a: yes (1)
